Values were extracted from the supplement of paper PMC10567573.

B1: CCDC6 (parent)
chain: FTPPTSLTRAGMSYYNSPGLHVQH

- Variants of: B1
- PROTOCOL SUMMARY: protein stability index of a GFP-peptide fusion (GPS, HEK-293T) (PSI 1-6); higher = more stable;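 note: lentivirally expressed fusions sorted by FACS into six bins by GFP to DsRed ratio, PSI derived from sequencing read proportions per bin multiplied by bin number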
- CONDITION PARAMETERS: c terminus: a fixed tail appended
ENDPOINT: protein stability index
Lab note: record just the number, no unit beside it.

Req: Could you share which protein stability index value was measured for N16L ?
Resp: 2.09

Req: Could you share which protein stability index value was measured for Y14D ?
Resp: 3.09

Req: Could you share which protein stability index value was measured for S17W ?
Resp: 2.48

Req: Could you share which protein stability index value was measured for Y15S ?
Resp: 2.21

Req: Could you share which protein stability index value was measured for S17A ?
Resp: 2.94

Req: Could you share which protein stability index value was measured for G19N ?
Resp: 2.09

Req: Could you share which protein stability index value was measured for Q23A ?
Resp: 1.74

Req: Could you share which protein stability index value was measured for P18N ?
Resp: 1.78

Req: Could you share which protein stability index value was measured for R9H ?
Resp: 1.27

Req: Could you share which protein stability index value was measured for S6W ?
Resp: 2.27

Req: Could you share which protein stability index value was measured for L7Y ?
Resp: 2.39

Req: Could you share which protein stability index value was measured for Y14H ?
Resp: 2.42

Req: Could you share which protein stability index value was measured for P18A ?
Resp: 2.28

Req: Could you share which protein stability index value was measured for L20V ?
Resp: 2.02

Req: Could you share which protein stability index value was measured for M12L ?
Resp: 2.21

Req: Could you share which protein stability index value was measured for H24Q ?
Resp: 1.86

Req: Could you share which protein stability index value was measured for T2H ?
Resp: 1.85

Req: Could you share which protein stability index value was measured for G11N ?
Resp: 2.46

Req: Could you share which protein stability index value was measured for H21A ?
Resp: 2.11

Req: Could you share which protein stability index value was measured for P3C ?
Resp: 2

Req: Could you share which protein stability index value was measured for T2I ?
Resp: 2.6

Req: Could you share which protein stability index value was measured for R9C ?
Resp: 2.58

Req: Could you share which protein stability index value was measured for P4T ?
Resp: 2.27

Req: Could you share which protein stability index value was measured for G11L ?
Resp: 1.97

Req: Could you share which protein stability index value was measured for Y15R ?
Resp: 2.33

Req: Could you share which protein stability index value was measured for S13L ?
Resp: 1.73

Req: Could you share which protein stability index value was measured for P3E ?
Resp: 2.16

Req: Could you share which protein stability index value was measured for L7F ?
Resp: 2.4

Req: Could you share which protein stability index value was measured for T2E ?
Resp: 2.83

Req: Could you share which protein stability index value was measured for N16I ?
Resp: 1.98

Req: Could you share which protein stability index value was measured for Y15Q ?
Resp: 2.45

Req: Could you share which protein stability index value was measured for S17R ?
Resp: 1.76

Req: Could you share which protein stability index value was measured for N16A ?
Resp: 2.42

Req: Could you share which protein stability index value was measured for V22G ?
Resp: 2.01

Req: Could you share which protein stability index value was measured for T5H ?
Resp: 1.72

Req: Could you share which protein stability index value was measured for H24M ?
Resp: 2.9

Req: Could you share which protein stability index value was measured for T8A ?
Resp: 1.76

Req: Could you share which protein stability index value was measured for P4L ?
Resp: 4.29

Req: Could you share which protein stability index value was measured for N16P ?
Resp: 1.89

Req: Could you share which protein stability index value was measured for H21K ?
Resp: 1.68

Req: Could you share which protein stability index value was measured for S6D ?
Resp: 1.79

Req: Could you share which protein stability index value was measured for S17V ?
Resp: 1.86

Req: Could you share which protein stability index value was measured for S6Q ?
Resp: 2.21

Req: Could you share which protein stability index value was measured for V22T ?
Resp: 1.97

Req: Could you share which protein stability index value was measured for P4I ?
Resp: 1.51

Req: Could you share which protein stability index value was measured for A10N ?
Resp: 2.23

Req: Could you share which protein stability index value was measured for Q23G ?
Resp: 1.56

Req: Could you share which protein stability index value was measured for L20S ?
Resp: 1.84

Req: Could you share which protein stability index value was measured for Y15E ?
Resp: 2.35

Req: Could you share which protein stability index value was measured for Q23K ?
Resp: 2.34

Req: Could you share which protein stability index value was measured for S17N ?
Resp: 1.24

Req: Could you share which protein stability index value was measured for G19M ?
Resp: 2.08

Req: Could you share which protein stability index value was measured for Y14Q ?
Resp: 2.65

Req: Could you share which protein stability index value was measured for L20E ?
Resp: 2.27

Req: Could you share which protein stability index value was measured for R9E ?
Resp: 2.63

Req: Could you share which protein stability index value was measured for T2W ?
Resp: 2.67

Req: Could you share which protein stability index value was measured for A10T ?
Resp: 1.68

Req: Could you share which protein stability index value was measured for S6F ?
Resp: 2.98

Req: Could you share which protein stability index value was measured for N16V ?
Resp: 2.32

Req: Could you share which protein stability index value was measured for P3N ?
Resp: 2.02

Req: Could you share which protein stability index value was measured for S13P ?
Resp: 1.96

Req: Could you share which protein stability index value was measured for T8C ?
Resp: 2.73

Req: Could you share which protein stability index value was measured for Y14N ?
Resp: 2.6

Req: Could you share which protein stability index value was measured for Y14G ?
Resp: 2.31

Req: Could you share which protein stability index value was measured for P4S ?
Resp: 1.42

Req: Could you share which protein stability index value was measured for M12G ?
Resp: 1.57

Req: Could you share which protein stability index value was measured for A10L ?
Resp: 1.2

Req: Could you share which protein stability index value was measured for H24V ?
Resp: 1.67

Req: Could you share which protein stability index value was measured for S13G ?
Resp: 1.39

Req: Could you share which protein stability index value was measured for S6K ?
Resp: 1.51

Req: Could you share which protein stability index value was measured for P3R ?
Resp: 2.14

Req: Could you share which protein stability index value was measured for S6H ?
Resp: 1.66

Req: Could you share which protein stability index value was measured for H24E ?
Resp: 1.84

Req: Could you share which protein stability index value was measured for Y14K ?
Resp: 2.66

Req: Could you share which protein stability index value was measured for F1C ?
Resp: 1.52

Req: Could you share which protein stability index value was measured for P18R ?
Resp: 1.95

Req: Could you share which protein stability index value was measured for P4M ?
Resp: 2.04

Req: Could you share which protein stability index value was measured for L7G ?
Resp: 1.66

Req: Could you share which protein stability index value was measured for S13H ?
Resp: 1.67

Req: Could you share which protein stability index value was measured for R9K ?
Resp: 1.71

Req: Could you share which protein stability index value was measured for P18M ?
Resp: 1.73

Req: Could you share which protein stability index value was measured for L20Y ?
Resp: 1.51

Req: Could you share which protein stability index value was measured for H21Y ?
Resp: 1.25

Req: Could you share which protein stability index value was measured for Y15H ?
Resp: 2.11

Req: Could you share which protein stability index value was measured for P3D ?
Resp: 2.1

Req: Could you share which protein stability index value was measured for S6T ?
Resp: 1.73
